Hello, the source for this data is patent US20150299265A1, in case you need it.

Recorded measurements of % activity vs. DARPin # 41, BT474 cell proliferation, one per entry
target-or-test-system: Human HER2 expressed on tumour cells (human, UniProt P04626 23-1255)
assay: cell-based or functional assay
The response must be a number in % with no trailing unit.

>>> endpoint_result("DARPin #68 (designed binder) MRGSHHHHHHGSDLGAKLLSDLGVKLLWAAARGQDDEVRILLAAGADVNAKDFQGITPLHIAAQSGHLEIVEVLLKAGADVNAKDVTGDTPLHLAAQHGHLVIVEVLLKAGADVNAQDERGWTPADLAADWGHEDIAEVLQKAAGSPTPTPTTPTPTPTTPTPTPTGSDLGKKLLEAARAGQDDEVRILMANGADVNAKDEYGLTPLYLATAHGHLEIVEVLLKNGADVNAVDAIGFTPLHLAAFIGHLEIAEVLLKHGADVNAQDKFGKTAFDISIGNGNEDLAEILQKAA")
100

Below: the item to evaluate.
INPUT: What measured % activity vs. DARPin # 41, BT474 cell proliferation goes with DARPin #32 (designed binder) MRGSHHHHHHGSDLGIKLLFAASRGQDDEVRILLAAGADVNAKDFEGITPLHAAARSGHLEIVEVLLKAGADVNAKDVEGWTPLHYAASYGHLEIVEVLLKAGADVNAQDNHGATPADLAAQWGHEDIAEVLQKLGGGGSGGGGSRSDLGIKLLQAANLGQDDEVRILLATGADVNAKDSIGQTPLHWAARRGHLEIVEVLLKAGADVNAKDEYGVTPLHLAASLGHLEIVEVLLKAGADVNAQDESGETPADLAALHGHEDIAEVLQKLN ?
OUTPUT: 48
